Molecular target: Beta-1 adrenergic receptor (Homo sapiens, UniProt P08588)
Sequence (P08588 whole entry): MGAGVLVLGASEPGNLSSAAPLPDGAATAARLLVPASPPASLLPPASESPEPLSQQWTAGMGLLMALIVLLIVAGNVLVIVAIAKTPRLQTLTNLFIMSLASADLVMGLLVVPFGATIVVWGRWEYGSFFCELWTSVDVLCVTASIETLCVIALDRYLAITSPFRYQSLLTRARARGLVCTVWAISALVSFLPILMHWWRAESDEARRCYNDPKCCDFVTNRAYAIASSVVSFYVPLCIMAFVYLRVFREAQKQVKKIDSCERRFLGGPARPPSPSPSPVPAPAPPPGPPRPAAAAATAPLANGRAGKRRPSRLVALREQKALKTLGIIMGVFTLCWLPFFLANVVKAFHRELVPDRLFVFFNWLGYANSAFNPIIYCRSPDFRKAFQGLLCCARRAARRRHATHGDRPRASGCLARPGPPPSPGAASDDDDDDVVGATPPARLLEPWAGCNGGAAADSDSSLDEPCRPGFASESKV
Assay: Agonist activity at human recombinant beta-1 adrenergic receptor expressed in CHO cells assessed as cAMP accumulation by enzyme immuno assay
MEASURE: EC50

SMILES	OBSERVED MEASUREMENT
CC(C)Oc1cc(-c2ccc(CCNC[C@H](O)c3ccc(N)cc3)cc2)ccc1C(=O)O	> 1000 nM
CCCOc1cc(-c2ccc(NCCNC[C@H](O)c3cccc(Cl)c3)cc2)ccc1C(=O)O	11 nM
CC(C)Oc1cc(-c2ccc(C[C@H](CO)NC[C@H](O)c3ccccc3)cc2)ccc1C(=O)O	> 1000 nM
CC(C)Cc1cc(-c2ccc(OCCNC[C@H](O)c3cccc(Cl)c3)cc2)ccc1C(=O)O	15 nM
CC(C)COc1cc(-c2ccc(OCCNC[C@H](O)c3cccc(Cl)c3)cc2)ccc1C(=O)O	110 nM
